- test_method_notes: Dual luciferase splicing reporter assay (DLR assay), RBM20 co-transfected
- Type: cell-based, human
- condition_notes: human; RBM20 titin reporter, N = 3; read-out: cell viability below which the splice reporter readout is affected
parameter_measured: viability at 36 h

Summary for this compound, C[C@@H]1CC[C@@]2(OC1)O[C@H]1[C@@H](O)[C@H]3[C@@H]4CC[C@H]5C[C@@H](O[C@@H]6O[C@H](CO)[C@H](O[C@@H]7O[C@H](CO)[C@@H](O)[C@H](O[C@@H]8OC[C@@H](O)[C@H](O)[C@H]8O)[C@H]7O[C@@H]7O[C@H](CO)[C@H](O)[C@H](O[C@@H]8O[C@H](CO)[C@@H](O)[C@H](O)[C@H]8O)[C@H]7O)[C@H](O)[C@H]6O)[C@H](O)C[C@]5(C)[C@H]4CC[C@]3(C)[C@H]1[C@@H]2C [Digitonin] : viability at 36 h is < 20%

* * *

- Tested on: RBM20 dependent titin PEVK4-13 splicing reporter
- test_method_notes: Dual luciferase splicing reporter assay (DLR assay), RBM20 co-transfected
- Type: cell-based, human
- condition_notes: DLR assay, HEK293
parameter_measured: effect on RBM20-mediated titin splicing (in words)

compound	value
C[C@]12CC[C@H](O)C[C@H]1CC[C@@H]1[C@@H]2CC[C@]2(C)[C@@H](C3=CC(=O)OC3)[C@@H](O)C[C@]12O [Gitoxigenin]	independently validated
CC(=O)O[C@H]1CC[C@@]2(C)[C@H](CC[C@@H]3[C@@H]2CC[C@]2(C)[C@@H](C4=CC(=O)OC4)CC[C@]32O)C1 [Digitoxigenin-3-acetate, Digitoxigenin 3-acetate]	independently validated
